// provenance: PubChem BioAssay AID527

# MEASUREMENT_PROTOCOL: S. aureus quorum sensing inhibitors, primary screen, RNAIII-GFP reporter, flow cytometry (AID 527);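 also: 0% = AIP-stimulated control and 100% = unstimulated bacteria without AIP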
# EXPERIMENTAL_CONDITIONS: S. aureus RN6390 RNAIII-GFP reporter, AIP-induced, flow cytometry 3 h; at 2 µM; hits give high values
Hit rate of the full screen: of about 24,000 compounds, about 65 (0.3%) were called active. The sample holds actives, similar compounds and a random draw of the others, so the mix is not that of the screen.
Some compounds, each annotated with its measured inhibition.
Only the number, expressed in %, is required.

// solved cases for inhibition follow
{"COMPOUND": "Cc1ccc(S(=O)(=O)NCC(=O)N(CC(=O)NC2CCCCC2)Cc2ccco2)cc1", "TEST_VALUE": 1}
{"COMPOUND": "CCOc1ccc(NCCC(=O)c2ccc3c(c2)OCO3)cc1", "TEST_VALUE": -0.1}
{"COMPOUND": "CC(=O)NCC(=O)N(C)C(C(=O)Nc1ccc2c(c1)OCCO2)c1ccccc1 (stereo unspecified)", "TEST_VALUE": 0.7}
{"COMPOUND": "CC(C)OCCCNC(=O)CNC(=O)c1cccs1", "TEST_VALUE": -1.5}

Problem: What measured inhibition goes with `O=C(CSc1nc2ccccc2o1)N1CCN(c2ccc(Cl)cc2)CC1` ?
Solution: 0.5

Problem: What measured inhibition goes with `COc1ccc(C(=O)NCc2cn3ccccc3n2)cc1` ?
Solution: -9.5

Problem: Reported inhibition for `CCn1cc(C(=O)N2CC=C(c3ccccc3)CC2)c(=O)c2ccc(C)nc21` : what is it?
Solution: 17.2

Problem: // inhibition lookup, key: `NC(=O)C1(N2CCCCC2)CCN(C(=O)c2ccc(C#Cc3ccccc3)o2)CC1`
Solution: 14.7

Problem: Which inhibition value belongs to `CCOc1ccccc1-n1c(SCC(=O)NCc2ccco2)nnc1-c1ccncc1` ?
Solution: -4.3

Problem: Fill in: inhibition of `Clc1ccc(Cc2nn3c(-c4ccncc4)nnc3s2)cc1` is ___
Solution: 0.3

Problem: Entry under review: `CC(=O)c1cccc(S(=O)(=O)N2CCC(n3nnc4cc(F)ccc43)CC2)c1` . Reported inhibition?
Solution: -1.4

====

# MEASUREMENT_PROTOCOL: S. aureus quorum sensing inhibitors, primary screen, RNAIII-GFP reporter, flow cytometry (AID 527);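 also: 0% = AIP-stimulated control and 100% = unstimulated bacteria without AIP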
# EXPERIMENTAL_CONDITIONS: S. aureus RN6390 RNAIII-GFP reporter, AIP-induced, flow cytometry 3 h; at 2 µM; hits give high values
Out of some 24,000 compounds screened, about 65 (0.3%) were called active. Only a selection was taken, and actives are over-represented in it overall.
Consider the following compounds and their measured inhibition readings.
Please respond with the number in % and leave the unit unwritten.

Problem: Field request: inhibition | item: COC(=O)c1cc(C(=O)OC)cc(N2C(=O)CC(N3CCN(c4ccccc4)CC3)C2=O)c1 (stereo not drawn)
Solution: 5.6

Problem: What does the data say about its inhibition? Entry: `CCOc1ccc(-c2nnn(CC(=O)N3CCN(c4ccc(F)cc4)CC3)n2)cc1OCC`
Solution: 0.7

Problem: Name the recorded inhibition for `O=C(NCCCN1CCN(C2CCCCC2)CC1)Nc1ccccc1C(F)(F)F` .
Solution: -9.7

Problem: Which inhibition value is on record for CCC1=C(C(=O)OC)C(c2cc(OC)ccc2OC)C(C#N)=C(N)O1 (stereo not drawn) ?
Solution: -0.3

Problem: Dear colleague, I am looking for the recorded inhibition of the following compound: `O=C(CSc1nnc(-c2c[nH]c3ccccc23)n1-c1ccc(F)cc1)NCc1ccco1`
Solution: -0.1

Problem: Form field: reported inhibition of `O=C(NCCc1ccccn1)c1ccc(COc2ccccc2)o1`
Solution: -0.4

Problem: For `COc1c(F)c(F)c(C(=O)O)c(Nc2ccccc2C)c1F` , what is its reported inhibition?
Solution: -1.7

Problem: Requested field: inhibition. Item: O=C(C(Cc1ccccc1)n1cccc1)N1CCN(C2CCCCC2)CC1 (stereo not drawn)
Solution: -0.8

Problem: Name the recorded inhibition for `Cc1cccc(C(=O)OCC(=O)Nc2sc3c(c2C#N)CCC3)c1` .
Solution: 0

Problem: # input compound: CCC(=O)c1ccc(OCC(O)CN2C(=O)NC(C)(C)C2=O)cc1 (stereo not drawn) ; wanted: its inhibition
Solution: -0.8

Problem: Recorded inhibition for CC(C)(C)n1nc2c(c1NC(=O)c1ccc(S(=O)(=O)N3CCCC3)cc1)CS(=O)C2 (stereo not drawn) , please?
Solution: -6.3
